# BMPRIa binding relative to wild type values compiled below
- Test Target: T1, BMPRIa receptor-Fc fusion (UniProt P36894 24-152, limits assumed)
- T1 construct: BMP receptor-Fc fusion; also called ALK-3
- T1 sequence (P36894 24-152 limits assumed): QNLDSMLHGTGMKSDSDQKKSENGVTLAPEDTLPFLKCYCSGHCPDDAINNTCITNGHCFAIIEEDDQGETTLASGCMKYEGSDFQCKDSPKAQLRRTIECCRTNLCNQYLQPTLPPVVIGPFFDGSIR
- Test Method Notes: ELISA-like, fixed volume of conditioned media, receptor-Fc

Recorded BMPRIa binding relative to wild type, per entry:
Binder | Result
BMP-7 variant S77P (ligand) STGGKQRSQNRSKTPKNQEALRMASVAENSSSDQRQACKKHELYVSFRDLGWQDWIIAPEGYAAYYCEGECAFPLNPYMNATNHAIVQTLVHFINPETVPKPCCAPTQLNAISVLYFDDSSNVILKKYRNMVVRACGCH | 0.68 relative to wt = 1.0
BMP-7 variant S77T (ligand) STGGKQRSQNRSKTPKNQEALRMASVAENSSSDQRQACKKHELYVSFRDLGWQDWIIAPEGYAAYYCEGECAFPLNTYMNATNHAIVQTLVHFINPETVPKPCCAPTQLNAISVLYFDDSSNVILKKYRNMVVRACGCH | 0.94 relative to wt = 1.0
BMP-7 variant K126G (ligand) STGGKQRSQNRSKTPKNQEALRMASVAENSSSDQRQACKKHELYVSFRDLGWQDWIIAPEGYAAYYCEGECAFPLNSYMNATNHAIVQTLVHFINPETVPKPCCAPTQLNAISVLYFDDSSNVILGKYRNMVVRACGCH | 0.3 relative to wt = 1.0
BMP-7 variant K39D (ligand) STGGKQRSQNRSKTPKNQEALRMASVAENSSSDQRQACDKHELYVSFRDLGWQDWIIAPEGYAAYYCEGECAFPLNSYMNATNHAIVQTLVHFINPETVPKPCCAPTQLNAISVLYFDDSSNVILKKYRNMVVRACGCH | 0.67 relative to wt = 1.0

Challenge: For the binder shown here, BMP-7 variant R134P (ligand) STGGKQRSQNRSKTPKNQEALRMASVAENSSSDQRQACKKHELYVSFRDLGWQDWIIAPEGYAAYYCEGECAFPLNSYMNATNHAIVQTLVHFINPETVPKPCCAPTQLNAISVLYFDDSSNVILKKYRNMVVPACGCH , give the reported BMPRIa binding relative to wild type.
Response given: 0.54 relative to wt = 1.0
